Exercise: for every item that follows, state its recorded IC50.
# target-system: LRRK2^RCKW (Homo sapiens, UniProt Q5S007)
# Construct: LRRK2 R1327 to E2527; His6-Z-tag (TEV cleavable) (N, cleaved yes); host or cells: Sf9 insect cells (baculovirus)
# Sequence (Q5S007 1327-2527): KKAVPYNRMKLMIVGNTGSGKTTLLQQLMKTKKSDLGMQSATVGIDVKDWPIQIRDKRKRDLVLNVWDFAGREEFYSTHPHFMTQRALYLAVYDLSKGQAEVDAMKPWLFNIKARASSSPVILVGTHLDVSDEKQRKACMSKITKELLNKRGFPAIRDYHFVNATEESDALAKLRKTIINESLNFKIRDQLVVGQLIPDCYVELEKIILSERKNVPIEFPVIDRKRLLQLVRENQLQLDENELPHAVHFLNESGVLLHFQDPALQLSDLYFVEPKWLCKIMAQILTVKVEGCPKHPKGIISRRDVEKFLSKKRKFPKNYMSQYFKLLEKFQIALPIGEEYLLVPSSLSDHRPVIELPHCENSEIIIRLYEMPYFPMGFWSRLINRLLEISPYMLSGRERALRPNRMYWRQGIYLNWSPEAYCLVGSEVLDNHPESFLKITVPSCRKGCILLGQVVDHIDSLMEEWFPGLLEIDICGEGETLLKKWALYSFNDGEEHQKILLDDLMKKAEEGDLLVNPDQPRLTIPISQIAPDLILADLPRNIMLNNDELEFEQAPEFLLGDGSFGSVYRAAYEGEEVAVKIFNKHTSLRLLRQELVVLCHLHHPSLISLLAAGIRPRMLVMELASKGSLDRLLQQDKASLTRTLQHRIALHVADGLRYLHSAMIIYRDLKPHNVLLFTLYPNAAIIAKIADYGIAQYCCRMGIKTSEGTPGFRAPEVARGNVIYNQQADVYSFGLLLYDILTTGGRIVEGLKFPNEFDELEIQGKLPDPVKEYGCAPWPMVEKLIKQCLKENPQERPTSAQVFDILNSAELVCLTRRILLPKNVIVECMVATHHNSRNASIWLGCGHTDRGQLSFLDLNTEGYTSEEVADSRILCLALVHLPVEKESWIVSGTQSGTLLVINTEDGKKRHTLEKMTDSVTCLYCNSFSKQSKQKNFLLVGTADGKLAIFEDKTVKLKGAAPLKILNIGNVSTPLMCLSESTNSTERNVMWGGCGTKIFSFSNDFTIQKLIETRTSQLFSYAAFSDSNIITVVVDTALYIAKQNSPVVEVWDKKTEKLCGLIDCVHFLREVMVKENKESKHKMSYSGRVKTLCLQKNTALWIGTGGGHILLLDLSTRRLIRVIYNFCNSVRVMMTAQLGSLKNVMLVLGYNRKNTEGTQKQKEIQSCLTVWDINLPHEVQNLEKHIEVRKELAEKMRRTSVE
# procedure-details: Biochemical LRRK2 activity assay (PhosphoSense, AssayQuant SOX peptide AQT0615)
# assay-setup: LRRK2^RCKW kinase activity, in vitro
Numbers only, in nM.

Field: example entries. Status: answers known.
molecule: COc1cc(C(=O)N2CCOCC2)c(F)cc1Nc1nc(N(C)C)c2c(Cl)c[nH]c2n1 [Compound 36]
IC50 [nM]: 4.96
--
molecule: Cc1cc(NC(=O)C2(C(=O)Nc3cccc(-c4c[nH]c5ncnc(N6CCOCC6)c45)c3)CC2)ccc1F [Compound 20]
IC50 [nM]: 110
--
molecule: COc1cc(C(=O)N2CCOCC2)c(F)cc1Nc1nc(N(C)C)c2c(-c3cccc(NC(=O)Nc4cc(C(C)(C)C)nn4-c4ccc(C)cc4)c3)c[nH]c2n1 [Compound 34]
IC50 [nM]: 2820
--
molecule: O=C(Nc1cccc(-c2c[nH]c3ncnc(N4CCOCC4)c23)c1)C1(C(=O)Nc2ccc(F)cc2F)CC1 [Compound 23]
IC50 [nM]: 159
--
molecule: O=C(Nc1cc(F)cc(Br)c1)C1(C(=O)Nc2cccc(-c3c[nH]c4ncnc(N5CCOCC5)c34)c2)CC1 [Compound 27]
IC50 [nM]: 1960
--
molecule: O=C(Nc1cccc(-c2c[nH]c3ncnc(N4CCOCC4)c23)c1)c1cccn(-c2ccc(F)cc2)c1=O [Compound 4]
IC50 [nM]: 167
--
molecule: Cc1ccc(-n2nc(C(C)(C)C)cc2NC(=O)Nc2cccc(-c3c[nH]c4nc(Cl)nc(N5CCOCC5)c34)c2)cc1 [Compound 30]
IC50 [nM]: 135
--
molecule: Cc1cc(NC(=O)C2(C(=O)Nc3ccc(F)cc3)CC2)cc(-c2c[nH]c3ncnc(N4CCOCC4)c23)c1 [Compound 6]
IC50 [nM]: 2150

Dear reader, for each entry below, please note its IC50.
1. CCc1ccc(NC(=O)C2(C(=O)Nc3cccc(-c4c[nH]c5ncnc(N6CCOCC6)c45)c3)CC2)cc1 [Compound 15]
2. Cc1ccc(C(=O)Nc2ccc(CN3CCN(C)CC3)c(C(F)(F)F)c2)cc1C#Cc1c[nH]c2ncnc(N3CCOCC3)c12 [Compound 1]
3. O=C(Nc1ccc(Cl)cc1)C1(C(=O)Nc2cccc(-c3c[nH]c4ncnc(N5CCOCC5)c34)c2)CC1 [Compound 13]
4. O=C(Nc1ccc(F)cc1)C1(C(=O)Nc2cccc(-c3c[nH]c4ncnc(N5CCOCC5)c34)c2)CCCC1 [Compound 3]
5. O=C(Nc1cccc(-c2c[nH]c3ncnc(N4CCOCC4)c23)c1)C1(C(=O)Nc2ccc(F)c(Cl)c2)CC1 [Compound 18]
6. COc1ccc(NC(=O)C2(C(=O)Nc3cccc(-c4c[nH]c5ncnc(N6CCOCC6)c45)c3)CC2)cc1 [Compound 16]

960
756
717
694
152
1100

====

# target-system: ~100 representative kinases (Homo sapiens, UniProt Q9H2X6)
# Construct: Recombinant protein kinase domains with a concentration of 2 μM
# Sequence (Q9H2X6 whole entry, the tested form may be a part): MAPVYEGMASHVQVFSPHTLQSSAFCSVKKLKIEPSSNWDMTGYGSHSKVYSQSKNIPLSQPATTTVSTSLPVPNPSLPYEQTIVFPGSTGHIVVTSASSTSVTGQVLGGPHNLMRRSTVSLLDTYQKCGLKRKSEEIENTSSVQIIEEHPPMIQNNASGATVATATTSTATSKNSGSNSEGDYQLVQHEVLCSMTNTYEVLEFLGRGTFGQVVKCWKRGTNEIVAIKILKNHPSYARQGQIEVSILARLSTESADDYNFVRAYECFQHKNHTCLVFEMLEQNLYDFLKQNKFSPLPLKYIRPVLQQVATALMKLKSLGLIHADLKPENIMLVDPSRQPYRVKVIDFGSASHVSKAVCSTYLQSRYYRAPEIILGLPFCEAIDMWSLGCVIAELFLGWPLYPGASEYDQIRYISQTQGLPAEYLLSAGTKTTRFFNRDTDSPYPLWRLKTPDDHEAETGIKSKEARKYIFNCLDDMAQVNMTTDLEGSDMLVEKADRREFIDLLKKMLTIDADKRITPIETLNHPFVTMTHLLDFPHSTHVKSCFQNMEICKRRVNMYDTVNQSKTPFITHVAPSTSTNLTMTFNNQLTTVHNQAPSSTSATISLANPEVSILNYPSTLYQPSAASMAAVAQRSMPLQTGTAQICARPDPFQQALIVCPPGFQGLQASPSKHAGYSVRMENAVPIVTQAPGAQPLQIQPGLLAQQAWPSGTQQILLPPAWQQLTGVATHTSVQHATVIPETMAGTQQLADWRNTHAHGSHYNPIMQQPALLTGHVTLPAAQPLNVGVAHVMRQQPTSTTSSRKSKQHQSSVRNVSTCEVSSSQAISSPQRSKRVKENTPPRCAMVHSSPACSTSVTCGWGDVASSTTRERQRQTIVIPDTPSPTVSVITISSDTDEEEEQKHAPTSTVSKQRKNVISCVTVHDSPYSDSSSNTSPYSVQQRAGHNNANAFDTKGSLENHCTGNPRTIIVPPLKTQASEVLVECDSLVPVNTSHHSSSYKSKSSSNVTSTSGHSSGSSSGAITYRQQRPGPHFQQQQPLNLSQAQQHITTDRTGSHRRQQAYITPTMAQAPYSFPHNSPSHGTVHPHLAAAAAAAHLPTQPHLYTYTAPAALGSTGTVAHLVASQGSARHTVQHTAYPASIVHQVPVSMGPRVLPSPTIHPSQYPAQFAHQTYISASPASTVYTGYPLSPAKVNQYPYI
# procedure-details: DSF 100 kinase selectivity screen;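 note: compound tested at 20 µM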
# Format: binding
# assay-setup: protein HIPK2; average of three replicates
reported-endpoint: dTm (K)
One number for each entry, in K.

Field: example entries. Status: answers known.
compound: O=C(Nc1cccc(-c2c[nH]c3ncnc(N4CCOCC4)c23)c1)C1(C(=O)Nc2ccc(F)c(Br)c2)CC1
dTm [K]: 2.50
--
compound: CC(=O)N1CCN(c2nc(Cl)nc3[nH]cc(-c4cccc(NC(=O)Nc5cc(C(C)(C)C)nn5-c5ccc(C)cc5)c4)c23)CC1
dTm [K]: 2.23
--
compound: O=C(Nc1cccc(-c2c[nH]c3ncnc(N4CCOCC4)c23)c1)c1cccn(-c2ccc(F)cc2)c1=O
dTm [K]: 8.43

Next:
Find dTm (~100 representative kinases (Homo sapiens, UniProt Q9H2X6)) for the entry Cc1ccc(C(=O)Nc2ccc(CN3CCN(C)CC3)c(C(F)(F)F)c2)cc1C#Cc1cnc2[nH]ncc2c1 [GZD-824, reference compound]
1.22

====

# target-system: ~100 representative kinases (Homo sapiens, UniProt Q99640)
# Construct: Recombinant protein kinase domains with a concentration of 2 μM
# Sequence (Q99640 1-499): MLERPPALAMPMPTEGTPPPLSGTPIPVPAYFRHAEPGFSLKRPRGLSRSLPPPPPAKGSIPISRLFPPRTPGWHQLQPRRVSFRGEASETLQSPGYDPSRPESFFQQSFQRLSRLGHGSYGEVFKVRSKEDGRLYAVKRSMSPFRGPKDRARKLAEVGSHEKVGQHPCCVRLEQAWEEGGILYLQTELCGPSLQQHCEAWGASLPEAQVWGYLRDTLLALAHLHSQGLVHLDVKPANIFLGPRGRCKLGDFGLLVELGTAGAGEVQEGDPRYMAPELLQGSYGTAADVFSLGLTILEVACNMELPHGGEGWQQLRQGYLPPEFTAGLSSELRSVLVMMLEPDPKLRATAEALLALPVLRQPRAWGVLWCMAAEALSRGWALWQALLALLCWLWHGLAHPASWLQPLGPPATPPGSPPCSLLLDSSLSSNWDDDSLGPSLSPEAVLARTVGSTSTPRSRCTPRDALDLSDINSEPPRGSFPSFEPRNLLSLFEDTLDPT
# procedure-details: DSF 100 kinase selectivity screen;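 note: compound tested at 20 µM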
# Type: binding
# assay-setup: protein PKMYT1; average of three replicates
Field: dTm. Provide a value for each of the compounds that follow.

compound: Cc1cc(NC(=O)C2(C(=O)Nc3cccc(-c4c[nH]c5ncnc(N6CCOCC6)c45)c3)CC2)ccc1F [Compound 20]
dTm: 0.44 K
--
compound: COc1cc(C(=O)N2CCOCC2)c(F)cc1Nc1nc(N(C)C)c2c(Cl)c[nH]c2n1 [Compound 36]
dTm: -0.59 K
--
compound: C[C@@H]1CN(c2cc(-c3n[nH]c4ccc(OC5(C)CC5)cc34)ncn2)C[C@H](C)O1 [MLi2]
dTm: -0.55 K

Now consider a different compound.
Reported dTm, compound Cc1ccc(NC(=O)C2(C(=O)Nc3cccc(-c4c[nH]c5ncnc(N6CCOCC6)c45)c3)CC2)cc1 [Compound 14] : ____
0.43 K

====

# target-system: ~100 representative kinases (Homo sapiens, UniProt Q9UKI8)
# Construct: Recombinant protein kinase domains with a concentration of 2 μM
# Sequence (Q9UKI8 1-766): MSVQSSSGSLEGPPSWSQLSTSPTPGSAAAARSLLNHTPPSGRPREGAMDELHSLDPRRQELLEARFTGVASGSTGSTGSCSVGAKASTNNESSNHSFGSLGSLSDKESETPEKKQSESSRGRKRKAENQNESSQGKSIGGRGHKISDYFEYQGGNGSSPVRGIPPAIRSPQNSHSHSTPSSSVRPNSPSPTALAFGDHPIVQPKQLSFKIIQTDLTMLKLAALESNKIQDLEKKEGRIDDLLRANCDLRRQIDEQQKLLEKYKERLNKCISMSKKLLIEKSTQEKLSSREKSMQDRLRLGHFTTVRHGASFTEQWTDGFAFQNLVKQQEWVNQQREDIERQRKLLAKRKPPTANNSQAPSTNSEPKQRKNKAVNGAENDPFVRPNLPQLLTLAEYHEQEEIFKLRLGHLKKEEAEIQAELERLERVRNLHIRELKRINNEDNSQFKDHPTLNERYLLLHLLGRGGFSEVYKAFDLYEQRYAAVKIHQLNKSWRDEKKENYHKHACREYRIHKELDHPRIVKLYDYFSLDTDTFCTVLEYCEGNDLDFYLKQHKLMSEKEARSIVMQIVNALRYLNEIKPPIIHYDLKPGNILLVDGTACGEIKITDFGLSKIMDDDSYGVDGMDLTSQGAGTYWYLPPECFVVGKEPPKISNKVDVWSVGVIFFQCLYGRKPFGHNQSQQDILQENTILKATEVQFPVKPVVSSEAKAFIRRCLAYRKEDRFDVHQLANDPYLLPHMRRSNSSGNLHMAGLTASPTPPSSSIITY
# procedure-details: DSF 100 kinase selectivity screen;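 note: compound tested at 20 µM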
# Assay type: binding
# assay-setup: Protein TLK1; DSF; average of three replicates
reported-endpoint: dTm (K)
Give bare numbers, in K.

Field: example entries. Status: answers known.
compound: CCSc1nc(NC)c2c(-c3cccc(NC(=O)Nc4cc(C(C)(C)C)nn4-c4ccc(C)cc4)c3)c[nH]c2n1
dTm [K]: -0.57
//
compound: Cc1ccc(NC(=O)C2(C(=O)Nc3cccc(-c4c[nH]c5ncnc(N6CCOCC6)c45)c3)CC2)cc1
dTm [K]: -0.87
//
compound: COc1cc(C(=O)N2CCOCC2)c(F)cc1Nc1nc(N(C)C)c2c(Cl)c[nH]c2n1
dTm [K]: -1.95
//
compound: Cc1ccc(C(=O)Nc2ccc(CN3CCN(C)CC3)c(C(F)(F)F)c2)cc1C#Cc1cnc2[nH]ncc2c1 [GZD-824, reference compound]
dTm [K]: -0.0844
//
compound: O=C(Nc1ccc(Cl)cc1)C1(C(=O)Nc2cccc(-c3c[nH]c4ncnc(N5CCOCC5)c34)c2)CC1
dTm [K]: 0.97

Required: dTm, one value per compound below.
1. O=C(Nc1cccc(-c2c[nH]c3ncnc(N4CCOCC4)c23)c1)c1cccn(-c2ccc(F)cc2)c1=O
2. CCNc1nc(Nc2cc(F)c(C(=O)N3CCOCC3)cc2OC)ncc1C(F)(F)F
3. COc1cc(S(C)(=O)=O)ccc1Nc1nc(N(C)C)c2c(Cl)c[nH]c2n1
4. O=C(Nc1cccc(-c2c[nH]c3ncnc(N4CCOCC4)c23)c1)C1(C(=O)Nc2ccc(F)cc2F)CC1
5. CCc1ccc(NC(=O)C2(C(=O)Nc3cccc(-c4c[nH]c5ncnc(N6CCOCC6)c45)c3)CC2)cc1

1. -0.72
2. 0.65
3. -1.44
4. -0.64
5. -0.49

# map each compound to its dTm
1. O=C(Nc1cccc(-c2c[nH]c3ncnc(N4CCOCC4)c23)c1)C1(C(=O)Nc2ccc(F)c(Br)c2F)CC1
2. Cc1ccc(-n2nc(C(C)(C)C)cc2NC(=O)Nc2cccc(-c3c[nH]c4ncnc(N5CCOCC5)c34)c2)cc1
3. Cc1cc(NC(=O)C2(C(=O)Nc3ccc(F)cc3)CC2)cc(-c2c[nH]c3ncnc(N4CCOCC4)c23)c1
4. O=C(Nc1cc(F)cc(Br)c1)C1(C(=O)Nc2cccc(-c3c[nH]c4ncnc(N5CCOCC5)c34)c2)CC1
5. COc1cc2c(Oc3ccc(NC(=O)C4(C(=O)Nc5ccc(F)cc5)CC4)cc3F)ccnc2cc1OCCCN1CCOCC1 [Foretinib, reference compound]
6. Cc1ccc(-n2nc(C(C)(C)C)cc2NC(=O)Nc2cccc(-c3c[nH]c4nc(Cl)nc(N5CCOCC5)c34)c2)cc1
7. O=C(Nc1ccccc1)C1(C(=O)Nc2cccc(-c3c[nH]c4ncnc(N5CCOCC5)c34)c2)CC1

1.63
0.25
1.18
1.59
0.36
-1.50
0.18

// each compound listed below needs its dTm
1. Cc1cc(NC(=O)C2(C(=O)Nc3cccc(-c4c[nH]c5ncnc(N6CCOCC6)c45)c3)CC2)ccc1F
2. O=C(Nc1cccc(-c2c[nH]c3ncnc(N4CCOCC4)c23)c1)C1(C(=O)Nc2cc(Br)c(F)cc2F)CC1

1. -0.17
2. 1.57

// batch mode: one dTm value per listed entry
1. Cc1ccc(C(=O)Nc2ccc(CN3CCN(C)CC3)c(C(F)(F)F)c2)cc1C#Cc1c[nH]c2ncnc(N3CCOCC3)c12
2. O=C(Nc1cccc(-c2c[nH]c3ncnc(N4CCOCC4)c23)c1)C1(C(=O)Nc2ccc(F)c(F)c2)CC1
3. O=C(Nc1cccc(-c2c[nH]c3ncnc(N4CCOCC4)c23)c1)C1(C(=O)Nc2ccc(F)c(Br)c2)CC1
4. Cn1cc(-c2c[nH]c3ncnc(N4CCOCC4)c23)cc1C#N

1: 0.86; 2: -0.35; 3: 2.03; 4: -0.11

Give one value of dTm per listed compound.
1. O=C(Nc1cccc(-c2c[nH]c3ncnc(N4CCOCC4)c23)c1)C1(C(=O)Nc2ccc(F)c(Cl)c2)CC1
2. CC(C)(C)c1cc(NC(=O)Nc2cccc(-c3c[nH]c4ncnc(N5CCOCC5)c34)c2)n(-c2ccc3ncccc3c2)n1
3. Cc1cc(F)ccc1NC(=O)C1(C(=O)Nc2cccc(-c3c[nH]c4ncnc(N5CCOCC5)c34)c2)CC1
4. C[C@@H]1CN(c2cc(-c3n[nH]c4ccc(OC5(C)CC5)cc34)ncn2)C[C@H](C)O1

0.17
0.24
-0.75
0.0124

Data credit: paper PMC12136037
